Assay: Therapeutic index, ratio of IC50 for human TC135 cells to IC50 for human WI38 cells
Assay type: cell-based
Details: TC135 cells and WI38 cells, read-out: Ratio IC50
MEASUREMENT_KIND: selectivity ratio
Give bare numbers.

Read off the recorded selectivity ratio for CCN(CC)CC(=O)Nc1cccc(-n2cc(-c3ccc4ccc(-c5cn(-c6cccc(NC(=O)CN(CC)CC)c6)nn5)cc4c3)nn2)c1
40

---

Assay: Therapeutic index, ratio of IC50 for human MG63 cells to IC50 for human WI38 cells
Assay type: cell-based, WI-38
Conditions: MG63 cells and WI38 cells, read-out: Ratio IC50
MEASUREMENT_KIND: selectivity ratio
One number for each entry.

Read off the recorded selectivity ratio for CCN(CC)CC(=O)Nc1cccc(-n2cc(-c3ccc4ccc(-c5cn(-c6cccc(NC(=O)CN(CC)CC)c6)nn5)cc4c3)nn2)c1
40

---

Experiment: Therapeutic index, ratio of IC50 for human A549 cells to IC50 for human WI38 cells
Assay type: cell-based
Conditions: A549 cells and WI38 cells, read-out: Ratio IC50
MEASUREMENT_KIND: selectivity ratio
Give bare numbers.

Read off the recorded selectivity ratio for CCN(CC)CC(=O)Nc1cccc(-n2cc(-c3ccc4ccc(-c5cn(-c6cccc(NC(=O)CN(CC)CC)c6)nn5)cc4c3)nn2)c1
40

---

System: A549
Experiment: Antiproliferative activity against human A549 cells after 96 hrs by SRB assay
Type: functional, cell-based
Conditions: A549, 96 h
Output t for records whose IC50 is lower than 60 µM, f for records at or above 60 µM.

Reference set (5 entries):
CCN(CC)CC(=O)Nc1ccc(-n2cc(-c3ccc4ccc(-c5cn(-c6ccc(NC(=O)CN(CC)CC)cc6)nn5)cc4c3)nn2)cc1 : f
O=C(CCN1CCCC1)Nc1cccc(-n2cc(-c3ccc4ccc(-c5cn(-c6cccc(NC(=O)CCN7CCCC7)c6)nn5)cc4c3)nn2)c1 : f
O=C(CN1CCCC1)Nc1cccc(-n2cc(-c3ccc4ccc(-c5cn(-c6cccc(NC(=O)CN7CCCC7)c6)nn5)cc4c3)nn2)c1 : f
O=C(CCN1CCCC1)Nc1ccc(-n2cc(-c3ccc4ccc(-c5cn(-c6ccc(NC(=O)CCN7CCCC7)cc6)nn5)cc4c3)nn2)cc1 : t
CCN(CC)CCC(=O)Nc1ccc(-n2cc(-c3ccc4ccc(-c5cn(-c6ccc(NC(=O)CCN(CC)CC)cc6)nn5)cc4c3)nn2)cc1 : t

Lab log: compare recorded IC50 with 60 µM; is it strictly lower for O=C(CN1CCCCC1)Nc1cccc(-n2cc(-c3ccc4ccc(-c5cn(-c6cccc(NC(=O)CN7CCCCC7)c6)nn5)cc4c3)nn2)c1 ?
f

Lab log: compare recorded IC50 with 60 µM; is it strictly lower for CCN(CC)CCC(=O)Nc1cccc(-n2cc(-c3ccc4ccc(-c5cn(-c6cccc(NC(=O)CCN(CC)CC)c6)nn5)cc4c3)nn2)c1 ?
t

Lab log: compare recorded IC50 with 60 µM; is it strictly lower for O=C(CN1CCCC1)Nc1ccc(-n2cc(-c3ccc4ccc(-c5cn(-c6ccc(NC(=O)CN7CCCC7)cc6)nn5)cc4c3)nn2)cc1 ?
f

---

Assay: Therapeutic index, ratio of IC50 for human OST cells to IC50 for human WI38 cells
Assay type: cell-based
Conditions: OST cells and WI38 cells, read-out: Ratio IC50
MEASUREMENT_KIND: selectivity ratio
Give bare numbers.

Read off the recorded selectivity ratio for CCN(CC)CC(=O)Nc1cccc(-n2cc(-c3ccc4ccc(-c5cn(-c6cccc(NC(=O)CN(CC)CC)c6)nn5)cc4c3)nn2)c1
40
